The origin of these recorded values is patent US6403807B1.

# assay.text: UV-Visible absorption spectra of the dyes
# Type: physicochemical
# recorded.conditions: CH2Cl2
endpoint: δmax (absorption maximum) (nm)
// return numeric value only (unit: nm, not printed)

Incoming: Could you tell me which δmax (absorption maximum) is on file for CC1(C)C2=[N+](CCCCCCCCCCCCN3/C(=C/C=C/C=C/2)C(C)(C)c2ccccc23)c2ccccc21.[Br-] [Dye 19] ?
Outgoing: 656

Incoming: Could you tell me which δmax (absorption maximum) is on file for CC1(C)C2=[N+](CCCCCCCCCCCCN3/C(=C/C=C/C=C/C=C/2)C(C)(C)c2c3ccc3ccccc23)c2ccc3ccccc3c21 [Dye 25] ?
Outgoing: 800

Incoming: Could you tell me which δmax (absorption maximum) is on file for CC1(C)C2=[N+](CCCCCCCCCCCCN3/C(=C/C=C/C=C/C=C/2)C(C)(C)c2ccccc23)c2ccccc21.[Br-] [Dye 21] ?
Outgoing: 760

Incoming: Could you tell me which δmax (absorption maximum) is on file for CC1(C)C2=[N+](CCCCCCCCCCCCN3/C(=C/C4=C([O-])C(=C/2)/C4=O)C(C)(C)c2c3ccc3ccccc23)c2ccc3ccccc3c21 [Dye 24] ?
Outgoing: 671

Incoming: Could you tell me which δmax (absorption maximum) is on file for CC1(C)C2=[N+](CCCCCCCCCCCCN3/C(=C/C4=C([O-])C(=C/2)/C4=O)C(C)(C)c2ccccc23)c2ccccc21 [Dye 20] ?
Outgoing: 648

Incoming: Could you tell me which δmax (absorption maximum) is on file for CC1(C)C2=[N+](CCCCCCCCCCCCN3/C(=C/C=C/C=C/2)C(C)(C)c2c3ccc3ccccc23)c2ccc3ccccc3c21.[Br-] [Dye 23] ?
Outgoing: 696
